// data source = ChEMBL document CHEMBL5661979

measured on: UniProt:P21127
Sequence (P21127 whole entry): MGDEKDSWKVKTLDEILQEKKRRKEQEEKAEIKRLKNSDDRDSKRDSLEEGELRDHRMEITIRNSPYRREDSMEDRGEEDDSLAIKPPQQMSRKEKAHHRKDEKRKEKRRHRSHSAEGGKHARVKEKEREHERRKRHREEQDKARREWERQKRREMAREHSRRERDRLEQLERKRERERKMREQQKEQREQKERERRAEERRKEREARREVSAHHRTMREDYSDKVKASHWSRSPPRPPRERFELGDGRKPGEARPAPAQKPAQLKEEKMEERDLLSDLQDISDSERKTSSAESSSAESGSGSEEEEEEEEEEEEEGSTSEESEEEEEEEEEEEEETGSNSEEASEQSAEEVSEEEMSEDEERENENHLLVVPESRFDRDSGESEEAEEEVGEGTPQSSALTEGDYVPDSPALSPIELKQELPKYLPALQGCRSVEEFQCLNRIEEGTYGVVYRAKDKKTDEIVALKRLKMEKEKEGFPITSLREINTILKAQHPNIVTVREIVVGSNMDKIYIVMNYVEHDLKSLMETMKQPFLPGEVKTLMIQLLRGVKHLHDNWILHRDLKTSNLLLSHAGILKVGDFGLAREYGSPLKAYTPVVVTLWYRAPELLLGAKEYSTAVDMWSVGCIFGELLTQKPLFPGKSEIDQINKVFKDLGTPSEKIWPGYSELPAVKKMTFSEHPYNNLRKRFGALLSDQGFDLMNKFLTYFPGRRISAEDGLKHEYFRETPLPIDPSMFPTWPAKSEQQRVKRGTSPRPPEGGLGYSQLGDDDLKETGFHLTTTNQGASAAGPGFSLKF
method description: Inhibition of PITSLRE in human HeLa cells lysate pre incubated for 15 mins followed by ATP acyl phosphate probe addition and measured after 10 mins by LC-MS/MS analysis
recorded endpoint: IC50

The measured IC50 associated with CCOc1cc(N2CCC(O)CC2)ccc1Nc1ncc2c(n1)N(C)c1ccccc1C(=O)N2C reads > 50 µM

* * *

measured on: Dual specificity mitogen-activated protein kinase kinase 3 (Homo sapiens)
Sequence (P46734 whole entry): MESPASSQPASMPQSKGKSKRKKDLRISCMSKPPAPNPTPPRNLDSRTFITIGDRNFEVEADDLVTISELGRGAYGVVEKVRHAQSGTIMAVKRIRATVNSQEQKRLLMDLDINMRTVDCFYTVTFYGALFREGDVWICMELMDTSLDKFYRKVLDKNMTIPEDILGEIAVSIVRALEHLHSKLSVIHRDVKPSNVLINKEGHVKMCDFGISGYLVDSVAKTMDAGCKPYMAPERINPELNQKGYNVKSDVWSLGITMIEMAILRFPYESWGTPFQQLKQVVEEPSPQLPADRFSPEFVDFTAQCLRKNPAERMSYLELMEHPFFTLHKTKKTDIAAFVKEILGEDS
method description: Inhibition of MAP2K3 in human HeLa cells lysate pre incubated for 15 mins followed by ATP acyl phosphate probe addition and measured after 10 mins by LC-MS/MS analysis
Type: subcellular
pIC50: −log10 of the molar value.
recorded endpoint: pIC50

The measured pIC50 associated with CCOc1cc(N2CCC(O)CC2)ccc1Nc1ncc2c(n1)N(C)c1ccccc1C(=O)N2C reads < 4.30
